All figures here come from paper PMC3314994.

Tested on: HDAC (FDL_HELA)
assayOverview: Histone deacetylase activity in HeLa cell lysates (fluorescent assay kit)
Assay type: biochemical, Human
statedConditions: lysed HeLa cells; read-out: HDAC (FDL_HELA) IC50 ± SD
parameterMeasured: pIC50
Give bare numbers, as −log10 of the molar value.

O=C(/C=C/c1ccc2c(c1)OCO2)NCCCCCC(=O)NO [Compound 21]
7.54
O=C(/C=C/c1cccc(S(=O)(=O)N2CCN(c3ccccn3)CC2)c1)NO [Compound 3]
6.91
O=C(/C=C/c1cccc(S(=O)(=O)N2CCN(c3cccc(Cl)c3)CC2)c1)NO [Compound 4]
6.73

Hi team, please reply with pIC50 for each item in this list.
1. O=C(/C=C/c1cccc(S(=O)(=O)N2CCN(c3ncccn3)CC2)c1)NO [Compound 1]
2. COc1ccc(NS(=O)(=O)c2cccc(/C=C/C(=O)NO)c2)cc1 [Compound 18]

Result ::
7.08
7.89

###

Record form. Attribute: IC90. Fill in for each entry.
System: Trypanosoma brucei (BSF)
assayOverview: Growth inhibition of cultured bloodstream form T. brucei
Assay type: cell-based, Trypanosoma brucei (strain 427)
statedConditions: Trypanosoma brucei; cultured bloodstream form, strain 427; triplicate; read-out: Trypanosoma brucei (BSF) IC90 ± SD
Procedure: Treatment of parasites with micromolar levels of these inhibitors could result in cell death within 4 h (Fig. 1). [30] Growth inhibitory properties against cultured bloodstream form T. brucei were determined as described previously.[29] Experiments were performed in triplicate and data are presented as ±SD.
The reply must contain the numeric value and, after it, the unit.

O=C(/C=C/c1cccc(S(=O)(=O)N2CCN(c3ccccn3)CC2)c1)NO
201 nM
COc1cccc(NS(=O)(=O)c2cccc(/C=C/C(=O)NO)c2)c1
333 nM
O=C(/C=C/c1cccc(S(=O)(=O)N2CCN(c3ccc(Cl)cc3)CC2)c1)NO
130 nM
O=C(/C=C/c1cccc(S(=O)(=O)N2CCN(c3ccccc3Cl)CC2)c1)NO
281 nM
COc1ccc(N2CCN(S(=O)(=O)c3cccc(/C=C/C(=O)NO)c3)CC2)cc1
224 nM
O=C(/C=C/c1cccc(S(=O)(=O)N2CCN(c3ccccc3F)CC2)c1)NO
224 nM
O=C(/C=C/c1nc2ccccc2o1)NO
2180 nM
O=C(/C=C/c1cccc(S(=O)(=O)N2CCN(c3ccccc3)CC2)c1)NO
228 nM
O=C(/C=C/c1cccc(S(=O)(=O)Nc2ccc(OC(F)F)cc2)c1)NO
306 nM
O=C(/C=C/c1cccc(S(=O)(=O)Nc2ccc(Cl)cc2)c1)NO
651 nM

Hi team, please reply with IC90 for each item in this list.
1. COc1ccc2nc(/C=C/C(=O)NO)ccc2c1
2. O=C(/C=C/c1cccc(S(=O)(=O)Nc2cccc(F)c2)c1)NO
3. O=C(/C=C/c1cccc(S(=O)(=O)N2CCN(c3cccc(Cl)c3)CC2)c1)NO
4. COc1ccc(NS(=O)(=O)c2cccc(/C=C/C(=O)NO)c2)cc1
5. O=C(/C=C/c1cccc(S(=O)(=O)N2CCN(Cc3ccc4c(c3)OCO4)CC2)c1)NO
6. O=C(/C=C/c1ccc2ccccc2n1)NO
7. COc1ccccc1N1CCN(S(=O)(=O)c2cccc(/C=C/C(=O)NO)c2)CC1
8. COc1ccc(NS(=O)(=O)c2cccc(/C=C/C(=O)NO)c2)cc1OC

Result ::
1. 310 nM
2. 710 nM
3. 169 nM
4. 956 nM
5. 485 nM
6. 648 nM
7. 265 nM
8. 2150 nM

Hi team, please reply with IC90 for each item in this list.
1. O=C(/C=C/c1cccc(S(=O)(=O)N2CCN(c3ncccn3)CC2)c1)NO
2. O=C(/C=C/c1cccc(S(=O)(=O)Nc2ccc(OC(F)(F)F)cc2)c1)NO

Result ::
1. 66 nM
2. 220 nM
